# Tested on: A2780
# Test protocol: Antiproliferative activity against human A2780 cells
# Type: functional
Catalogue of TGI values
Report as a plain number; the unit µM is understood.

The following compounds have reported results that may help.
C[C@H]1CC(Cl)=C([Si](C)(C)C)[C@@H](C2CCCCC2)O1
32
CC(C)CC1OCCC(Cl)=C1[Si](C)(C)C (stereo not drawn)
66

Data request: Could you tell me which TGI is on file for ClC1=CC(CCCCCCCCCCC2C=C(Cl)CCO2)OCC1 (stereo not drawn) ?
Data returned: 25

Data request: Please answer likewise for C#CCC[C@H]1O[C@@H](C)[C@H](C)C(Cl)=C1[Si](C)(C)C
Data returned: 39

Data request: Please answer likewise for C[Si](C)(C)C1=C(Cl)C[C@H](Cc2ccccc2)O[C@@H]1C1CCCCC1
Data returned: 78
